Value source: patent US20240336686A1

- test_target: T1, Human SIRPα v2 (human)
- T1 construct: also called human SIRPα v2 (antigen of the Biacore assay)
- assay: SPR (Biacore), 1:1 binding model
- Description: The humanized antibodies were characterized for binding affinity against human SIRPα v1, human SIRPα v2 using Surface Plasmon Resonance technology (Biacore system). The association and dissociation curves were fit with 1:1 binding model, and the Ka/Kd/KD values for each antibody were calculated.
parameter_measured: Kd (nM)
Your answer is read as nM, so omit the unit and give the number.

binder: Humanized anti-SIRPα antibody hu025.021 (antibody, V domains shown, Humanized from C25) VH: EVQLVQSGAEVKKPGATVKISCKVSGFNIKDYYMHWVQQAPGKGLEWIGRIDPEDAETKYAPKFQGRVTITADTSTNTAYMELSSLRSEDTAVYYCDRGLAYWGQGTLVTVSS VL: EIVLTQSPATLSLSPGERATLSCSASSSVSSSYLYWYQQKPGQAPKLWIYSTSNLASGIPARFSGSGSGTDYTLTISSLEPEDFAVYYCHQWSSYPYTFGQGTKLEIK
parameter_measured: Kd
measured_number: 3.39
//
binder: Humanized anti-SIRPα antibody hu025.060 (antibody, V domains shown, Humanized from C25) VH: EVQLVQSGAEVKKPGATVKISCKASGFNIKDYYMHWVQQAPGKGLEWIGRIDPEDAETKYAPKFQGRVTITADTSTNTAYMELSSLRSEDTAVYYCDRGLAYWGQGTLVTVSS VL: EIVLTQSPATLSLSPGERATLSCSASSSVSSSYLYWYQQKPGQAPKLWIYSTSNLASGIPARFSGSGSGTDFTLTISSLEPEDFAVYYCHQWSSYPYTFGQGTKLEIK
parameter_measured: Kd
measured_number: 2.34

Note: attention shifts to another entry.
Which Kd value is on record for Anti-SIRPα antibody C25 (antibody, V domains shown, Mouse variable regions; also called 025c; 025) VH: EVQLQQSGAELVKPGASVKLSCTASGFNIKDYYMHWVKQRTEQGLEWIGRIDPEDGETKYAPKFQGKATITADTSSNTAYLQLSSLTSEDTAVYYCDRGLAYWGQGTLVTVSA VL: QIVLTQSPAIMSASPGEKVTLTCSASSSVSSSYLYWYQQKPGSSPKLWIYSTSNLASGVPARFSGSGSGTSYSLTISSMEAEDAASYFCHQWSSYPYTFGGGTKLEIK ?
1.69
